- measured-target: Proto-oncogene tyrosine-protein kinase Src (Gallus gallus)
- assay-protocol: Tested for inhibition of protein tyrosine kinase c-Src phosphorylation in intact cells
IC50 strictly under 0.7 µM means t; at 0.7 µM or over means f.

[
  {
    "smiles-notation": "Nc1ncnc2c1c(-c1ccccc1)cn2-c1cccc(CO)c1",
    "class": "f"
  },
  {
    "smiles-notation": "Nc1ncnc2c1c(-c1ccccc1)cn2-c1ccccc1",
    "class": "f"
  },
  {
    "smiles-notation": "COc1cccc(-c2cn(-c3ccccc3)c3ncnc(N)c23)c1",
    "class": "f"
  },
  {
    "smiles-notation": "COc1cccc(-c2cn(-c3ccc(CC(=O)NCCO)cc3)c3ncnc(N)c23)c1",
    "class": "f"
  },
  {
    "smiles-notation": "Nc1ncnc2c1c(-c1ccccc1)cn2-c1cccc(CNCCO)c1",
    "class": "f"
  },
  {
    "smiles-notation": "COc1cccc(-c2cn(-c3ccc(CCN(C)CCO)cc3)c3ncnc(N)c23)c1",
    "class": "t"
  },
  {
    "smiles-notation": "COc1cccc(-c2cn(-c3ccc(CNCCO)cc3)c3ncnc(N)c23)c1",
    "class": "t"
  }
]

* * *

IC50: recorded values
- measured-target: Vascular endothelial growth factor receptor 2 (Homo sapiens)
- Sequence (P35968 whole entry): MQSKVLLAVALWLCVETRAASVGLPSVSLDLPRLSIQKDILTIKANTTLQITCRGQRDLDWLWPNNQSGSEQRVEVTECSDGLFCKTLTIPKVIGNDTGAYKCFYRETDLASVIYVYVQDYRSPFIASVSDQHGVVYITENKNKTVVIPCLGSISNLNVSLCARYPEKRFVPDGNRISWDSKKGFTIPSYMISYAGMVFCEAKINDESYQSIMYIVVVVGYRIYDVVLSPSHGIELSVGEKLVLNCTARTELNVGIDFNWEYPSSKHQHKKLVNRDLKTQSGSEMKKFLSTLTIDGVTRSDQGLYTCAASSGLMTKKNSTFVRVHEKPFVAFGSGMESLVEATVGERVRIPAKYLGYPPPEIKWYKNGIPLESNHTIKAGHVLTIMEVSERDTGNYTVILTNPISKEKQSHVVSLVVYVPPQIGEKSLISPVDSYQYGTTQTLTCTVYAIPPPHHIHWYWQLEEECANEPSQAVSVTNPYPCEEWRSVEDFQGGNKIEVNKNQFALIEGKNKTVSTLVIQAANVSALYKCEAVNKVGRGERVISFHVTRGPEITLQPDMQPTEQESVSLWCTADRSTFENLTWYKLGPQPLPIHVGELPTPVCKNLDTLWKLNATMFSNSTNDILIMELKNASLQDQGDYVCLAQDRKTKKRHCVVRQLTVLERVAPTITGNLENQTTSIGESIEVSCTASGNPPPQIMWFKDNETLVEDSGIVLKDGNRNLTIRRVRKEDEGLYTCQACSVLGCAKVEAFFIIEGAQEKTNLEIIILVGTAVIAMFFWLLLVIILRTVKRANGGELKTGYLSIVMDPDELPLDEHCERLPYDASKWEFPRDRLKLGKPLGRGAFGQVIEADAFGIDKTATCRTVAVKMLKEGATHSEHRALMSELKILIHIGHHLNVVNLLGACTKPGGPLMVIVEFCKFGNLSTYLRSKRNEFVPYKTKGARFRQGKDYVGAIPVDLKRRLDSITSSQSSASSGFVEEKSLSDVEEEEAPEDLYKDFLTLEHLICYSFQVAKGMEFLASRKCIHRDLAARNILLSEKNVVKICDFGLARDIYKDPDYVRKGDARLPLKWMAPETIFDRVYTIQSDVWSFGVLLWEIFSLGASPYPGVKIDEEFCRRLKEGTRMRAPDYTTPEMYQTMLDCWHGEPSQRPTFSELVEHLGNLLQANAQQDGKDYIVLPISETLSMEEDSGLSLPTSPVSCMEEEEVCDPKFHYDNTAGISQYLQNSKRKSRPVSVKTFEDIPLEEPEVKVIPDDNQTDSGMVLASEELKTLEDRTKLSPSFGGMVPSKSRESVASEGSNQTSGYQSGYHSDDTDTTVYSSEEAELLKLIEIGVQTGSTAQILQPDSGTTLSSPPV

[
  {
    "smiles-notation": "CCOC(=O)c1ccc(-c2cn(-c3ccccc3)c3ncnc(N)c23)cc1",
    "modifier-sign": "=",
    "IC50 [nM]": 1100
  },
  {
    "smiles-notation": "COc1cccc(-c2cn(-c3ccc(CC(=O)NCCO)cc3)c3ncnc(N)c23)c1",
    "modifier-sign": ">",
    "IC50 [nM]": 1000
  },
  {
    "smiles-notation": "Nc1ncnc2c1c(-c1ccccc1)cn2-c1cccc(CNCCO)c1",
    "modifier-sign": "=",
    "IC50 [nM]": 3600
  },
  {
    "smiles-notation": "COc1cccc(-c2cn(-c3cccc(CO)c3)c3ncnc(N)c23)c1",
    "modifier-sign": ">",
    "IC50 [nM]": 1000
  },
  {
    "smiles-notation": "COc1ccc(-c2cn(-c3ccccc3)c3ncnc(N)c23)cc1",
    "modifier-sign": "=",
    "IC50 [nM]": 200
  }
]

* * *

- measured-target: Epidermal growth factor receptor (Homo sapiens)
- Sequence (P00533 whole entry): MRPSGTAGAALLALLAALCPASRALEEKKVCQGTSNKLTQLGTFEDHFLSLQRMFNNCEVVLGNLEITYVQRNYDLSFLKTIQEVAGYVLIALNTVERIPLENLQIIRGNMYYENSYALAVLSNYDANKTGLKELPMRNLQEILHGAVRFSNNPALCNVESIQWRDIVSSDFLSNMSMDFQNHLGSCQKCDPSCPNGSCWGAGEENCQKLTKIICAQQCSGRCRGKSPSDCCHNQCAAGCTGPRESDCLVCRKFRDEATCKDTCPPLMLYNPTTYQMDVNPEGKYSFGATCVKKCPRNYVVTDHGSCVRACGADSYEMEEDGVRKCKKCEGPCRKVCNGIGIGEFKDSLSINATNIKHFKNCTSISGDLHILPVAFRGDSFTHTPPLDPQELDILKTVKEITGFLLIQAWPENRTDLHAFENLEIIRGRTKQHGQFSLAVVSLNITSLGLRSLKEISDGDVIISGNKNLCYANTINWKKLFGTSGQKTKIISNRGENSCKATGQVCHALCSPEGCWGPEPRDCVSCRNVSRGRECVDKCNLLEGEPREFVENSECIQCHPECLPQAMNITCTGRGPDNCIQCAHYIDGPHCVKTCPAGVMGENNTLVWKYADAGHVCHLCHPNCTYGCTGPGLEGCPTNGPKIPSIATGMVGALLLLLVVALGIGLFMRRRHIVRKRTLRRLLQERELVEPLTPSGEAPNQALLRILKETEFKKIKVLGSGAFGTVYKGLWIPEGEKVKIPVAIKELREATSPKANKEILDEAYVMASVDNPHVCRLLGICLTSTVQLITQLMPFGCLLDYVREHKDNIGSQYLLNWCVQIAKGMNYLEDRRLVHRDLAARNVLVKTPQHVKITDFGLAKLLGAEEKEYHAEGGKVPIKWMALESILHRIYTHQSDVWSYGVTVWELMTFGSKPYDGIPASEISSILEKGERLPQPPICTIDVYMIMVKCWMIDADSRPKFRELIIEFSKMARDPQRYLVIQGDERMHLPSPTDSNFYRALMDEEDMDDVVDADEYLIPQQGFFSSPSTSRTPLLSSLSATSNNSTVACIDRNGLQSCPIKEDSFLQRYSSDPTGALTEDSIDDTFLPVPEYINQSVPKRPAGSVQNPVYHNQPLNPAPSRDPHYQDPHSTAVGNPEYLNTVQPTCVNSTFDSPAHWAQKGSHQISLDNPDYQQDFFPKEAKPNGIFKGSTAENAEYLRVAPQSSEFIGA
- assay-protocol: Tested in vitro for inhibition of EGF-receptor tyrosine kinase
observable: IC50

[
  {
    "smiles-notation": "COc1cccc(-c2cn(-c3ccc(CC(=O)NCCO)cc3)c3ncnc(N)c23)c1",
    "measured-target": "Epidermal growth factor receptor (Homo sapiens)",
    "observable": "IC50",
    "reported-result": "0.8 µM"
  },
  {
    "smiles-notation": "CNc1ncnc2c1c(-c1ccccc1)cn2-c1ccccc1",
    "measured-target": "Epidermal growth factor receptor (Homo sapiens)",
    "observable": "IC50",
    "reported-result": "31 µM"
  },
  {
    "smiles-notation": "COc1cccc(-c2cn(-c3ccc(CNCCO)cc3)c3ncnc(N)c23)c1",
    "measured-target": "Epidermal growth factor receptor (Homo sapiens)",
    "observable": "IC50",
    "reported-result": "0.3 µM"
  },
  {
    "smiles-notation": "COc1cccc(-c2cn(-c3ccc(CCN(C)CCO)cc3)c3ncnc(N)c23)c1",
    "measured-target": "Epidermal growth factor receptor (Homo sapiens)",
    "observable": "IC50",
    "reported-result": "0.3 µM"
  },
  {
    "smiles-notation": "COc1cccc(-c2cn(-c3cccc(CO)c3)c3ncnc(N)c23)c1",
    "measured-target": "Epidermal growth factor receptor (Homo sapiens)",
    "observable": "IC50",
    "reported-result": "0.8 µM"
  },
  {
    "smiles-notation": "Cc1ccccc1-c1cn(-c2ccccc2)c2ncnc(N)c12",
    "measured-target": "Epidermal growth factor receptor (Homo sapiens)",
    "observable": "IC50",
    "reported-result": "2.65 µM"
  },
  {
    "smiles-notation": "Nc1ncnc2c1c(-c1ccccc1)cn2-c1cccc(CO)c1",
    "measured-target": "Epidermal growth factor receptor (Homo sapiens)",
    "observable": "IC50",
    "reported-result": "0.6 µM"
  },
  {
    "smiles-notation": "Nc1ncnc2c1c(-c1ccccc1)cn2-c1ccc(CO)cc1",
    "measured-target": "Epidermal growth factor receptor (Homo sapiens)",
    "observable": "IC50",
    "reported-result": "0.7 µM"
  },
  {
    "smiles-notation": "Nc1ncnc2c1c(-c1ccccc1)cn2-c1cccc(CNCCO)c1",
    "measured-target": "Epidermal growth factor receptor (Homo sapiens)",
    "observable": "IC50",
    "reported-result": "3.4 µM"
  }
]
